// provenance: ChEMBL document CHEMBL4680157

- experimental system: UniProt:P08684
- Sequence (P08684 whole entry): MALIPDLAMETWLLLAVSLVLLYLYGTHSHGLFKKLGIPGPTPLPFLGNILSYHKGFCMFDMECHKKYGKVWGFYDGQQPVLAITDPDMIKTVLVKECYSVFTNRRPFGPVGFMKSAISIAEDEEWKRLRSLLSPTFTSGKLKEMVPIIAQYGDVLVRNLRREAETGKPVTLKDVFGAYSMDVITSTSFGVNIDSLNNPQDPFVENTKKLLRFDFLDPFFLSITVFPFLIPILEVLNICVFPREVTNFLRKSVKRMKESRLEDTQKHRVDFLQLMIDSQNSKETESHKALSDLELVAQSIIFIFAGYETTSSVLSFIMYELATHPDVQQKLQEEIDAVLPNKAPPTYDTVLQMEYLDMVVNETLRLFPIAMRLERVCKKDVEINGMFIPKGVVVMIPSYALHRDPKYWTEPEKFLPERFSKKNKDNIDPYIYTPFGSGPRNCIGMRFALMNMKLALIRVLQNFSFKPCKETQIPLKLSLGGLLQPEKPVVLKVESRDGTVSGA
- assay remarks: Inhibition of CYP3A4 (unknown origin) at 10 uM relative to control
- Assay type: ADME
metric: inhibition at 10 µM

The following compounds have reported results that may help.
inhibition at 10 µM of `CC(=O)Nc1ccc(Cc2c(C)cc(OCC(=O)O)cc2C)cc1C(C)C` on UniProt:P08684?
< 50%

Same again, this time with `CCNc1ccc(Cc2c(C)cc(OCC(=O)O)cc2C)cc1C(C)C`
> 91%

Cool, now `Cc1cc(OCC(=O)O)cc(C)c1Cc1ccc(N)c(C(C)C)c1`
51%

More entries:
Param readout= inhibition at 10 µM; system= UniProt:P08684; entry= `Cc1cc(OCC(=O)O)cc(C)c1Cc1ccc(N)cc1` ; returns value.
< 50%

Try `CC(=O)Nc1ccc(Cc2ccc(OCC(=O)O)cc2)cc1C(C)C` next.
< 50%

Follow-up item: `Nc1ccc(Cc2ccc(OCC(=O)O)cc2F)cc1`
< 50%

Do the same for `Cc1cc(OCCN)cc(C)c1Cc1ccc(O)cc1` please
51%

Entry to check: `CCNc1ccc(Cc2ccc(OCC(=O)O)cc2)cc1C(C)C`
> 91%

Now the compound `CC(C)c1cc(Cc2ccc(OCC(=O)O)cc2)ccc1N`
< 50%

What would you report for `NCCOc1ccc(Cc2ccc(N)cc2)c(C(F)(F)F)c1` ?
51%

Queued: `Cc1cc(OCC(=O)O)cc(C)c1Cc1ccc(O)cc1`
< 50%

====

- experimental system: CYP2C19 (Homo sapiens)
- Sequence (P33261 whole entry): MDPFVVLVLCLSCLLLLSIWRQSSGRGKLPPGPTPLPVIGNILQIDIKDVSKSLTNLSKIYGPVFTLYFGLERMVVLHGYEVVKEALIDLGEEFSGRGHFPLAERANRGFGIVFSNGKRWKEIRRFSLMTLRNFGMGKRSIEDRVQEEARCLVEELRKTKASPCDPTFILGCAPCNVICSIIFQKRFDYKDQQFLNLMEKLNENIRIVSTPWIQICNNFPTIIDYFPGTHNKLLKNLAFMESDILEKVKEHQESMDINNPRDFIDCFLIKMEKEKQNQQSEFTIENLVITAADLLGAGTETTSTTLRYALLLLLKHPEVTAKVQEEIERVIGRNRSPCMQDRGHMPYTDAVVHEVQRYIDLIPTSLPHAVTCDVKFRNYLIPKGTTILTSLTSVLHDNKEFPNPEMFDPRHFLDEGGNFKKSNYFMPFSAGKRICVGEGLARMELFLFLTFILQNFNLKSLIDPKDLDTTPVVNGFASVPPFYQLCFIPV
- assay remarks: Inhibition of CYP2C19 (unknown origin) at 10 uM relative to control
- Format: ADME
metric: inhibition at 10 µM

Examples with answers:
Sample `Nc1ccc(Cc2ccc(OCC(=O)O)cc2F)cc1` — what was its inhibition at 10 µM?
< 50%

Try the compound `CC(=O)Nc1ccc(Cc2ccc(OCC(=O)O)cc2)cc1C(C)C`
< 50%

Param item: `CC(C)c1cc(Cc2ccc(OCC(=O)O)cc2)ccc1N`
< 50%

New cases:
Which value of inhibition at 10 µM has been reported for `CCNc1ccc(Cc2c(C)cc(OCC(=O)O)cc2C)cc1C(C)C` in the records?
> 91%

Now consider `CCNc1ccc(Cc2ccc(OCC(=O)O)cc2)cc1C(C)C` and answer again.
> 91%

Now this one: `NCCOc1ccc(Cc2ccc(N)cc2)c(C(F)(F)F)c1`
> 91%

# repeat for `Cc1cc(OCC(=O)O)cc(C)c1Cc1ccc(N)cc1`
< 50%

Further, for `Cc1cc(OCCN)cc(C)c1Cc1ccc(O)cc1` ?
> 91%

Same again, this time with `CC(=O)Nc1ccc(Cc2c(C)cc(OCC(=O)O)cc2C)cc1C(C)C`
< 50%

Same question, `Cc1cc(OCC(=O)O)cc(C)c1Cc1ccc(N)c(C(C)C)c1` this time
< 50%

Also check `Cc1cc(OCC(=O)O)cc(C)c1Cc1ccc(O)cc1`
< 50%

====

- experimental system: UniProt P11712
- Sequence (P11712 whole entry): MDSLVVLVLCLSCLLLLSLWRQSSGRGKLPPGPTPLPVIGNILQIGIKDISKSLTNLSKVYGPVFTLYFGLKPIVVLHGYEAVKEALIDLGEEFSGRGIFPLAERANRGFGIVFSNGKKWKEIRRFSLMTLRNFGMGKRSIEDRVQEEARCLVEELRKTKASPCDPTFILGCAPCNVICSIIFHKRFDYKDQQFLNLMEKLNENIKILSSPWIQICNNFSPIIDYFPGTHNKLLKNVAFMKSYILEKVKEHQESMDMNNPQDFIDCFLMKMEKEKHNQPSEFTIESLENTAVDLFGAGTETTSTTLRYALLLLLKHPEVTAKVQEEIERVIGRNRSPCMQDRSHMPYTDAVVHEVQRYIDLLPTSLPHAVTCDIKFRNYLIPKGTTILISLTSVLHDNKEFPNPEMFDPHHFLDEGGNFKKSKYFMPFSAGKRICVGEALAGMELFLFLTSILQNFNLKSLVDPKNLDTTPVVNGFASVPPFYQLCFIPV
- assay remarks: Inhibition of CYP2C9 (unknown origin) at 10 uM relative to control
- Assay type: ADME
Catalogue of inhibition at 10 µM values

Reported inhibition at 10 µM for UniProt P11712, given `Nc1ccc(Cc2ccc(OCC(=O)O)cc2F)cc1` ?
51%

Another molecule to check: `CCNc1ccc(Cc2ccc(OCC(=O)O)cc2)cc1C(C)C`
> 91%

Now consider `Cc1cc(OCC(=O)O)cc(C)c1Cc1ccc(O)cc1` .
< 50%

Moving on to the next molecule: `Cc1cc(OCC(=O)O)cc(C)c1Cc1ccc(N)c(C(C)C)c1`
< 50%

Others:
Give inhibition at 10 µM (UniProt P11712) of the following molecule: `CC(=O)Nc1ccc(Cc2ccc(OCC(=O)O)cc2)cc1C(C)C`
< 50%

Same for `CC(=O)Nc1ccc(Cc2c(C)cc(OCC(=O)O)cc2C)cc1C(C)C`
< 50%

Another molecule: `NCCOc1ccc(Cc2ccc(N)cc2)c(C(F)(F)F)c1`
> 91%

Try the molecule `CC(C)c1cc(Cc2ccc(OCC(=O)O)cc2)ccc1N`
< 50%

Follow-up item: `Cc1cc(OCCN)cc(C)c1Cc1ccc(O)cc1`
> 91%

Please answer likewise for `Cc1cc(OCC(=O)O)cc(C)c1Cc1ccc(N)cc1`
< 50%

What do we get for `CCNc1ccc(Cc2c(C)cc(OCC(=O)O)cc2C)cc1C(C)C` ?
> 91%

====

- experimental system: Thyroid hormone receptor alpha (Homo sapiens)
- Sequence (P10827 whole entry): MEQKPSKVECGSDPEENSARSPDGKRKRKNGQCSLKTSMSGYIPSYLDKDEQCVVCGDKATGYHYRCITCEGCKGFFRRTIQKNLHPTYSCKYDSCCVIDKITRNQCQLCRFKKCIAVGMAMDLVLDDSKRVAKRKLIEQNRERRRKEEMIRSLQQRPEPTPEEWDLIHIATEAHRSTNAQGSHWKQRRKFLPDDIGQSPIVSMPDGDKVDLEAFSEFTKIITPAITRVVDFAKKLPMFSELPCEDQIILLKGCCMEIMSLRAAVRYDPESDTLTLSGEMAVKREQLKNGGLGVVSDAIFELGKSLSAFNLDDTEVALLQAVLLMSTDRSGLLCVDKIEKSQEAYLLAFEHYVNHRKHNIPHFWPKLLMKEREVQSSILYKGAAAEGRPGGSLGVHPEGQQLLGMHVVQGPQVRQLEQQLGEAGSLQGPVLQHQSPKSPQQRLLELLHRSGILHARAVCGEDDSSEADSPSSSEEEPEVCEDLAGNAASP
- assay remarks: Agonist activity at TRalpha (unknown origin) by Lanthascreen TR-FRET assay
metric: EC50 (nM)
Give a bare numeral; the unit nM is implied.

Item: `Cc1cc(OCC(=O)O)cc(C)c1Cc1ccc(O)cc1` Test system: Thyroid hormone receptor alpha (Homo sapiens) Read-out: EC50 Value: ?
54

====

- experimental system: hERG (KCNH2) (Homo sapiens)
- Sequence (Q12809 whole entry): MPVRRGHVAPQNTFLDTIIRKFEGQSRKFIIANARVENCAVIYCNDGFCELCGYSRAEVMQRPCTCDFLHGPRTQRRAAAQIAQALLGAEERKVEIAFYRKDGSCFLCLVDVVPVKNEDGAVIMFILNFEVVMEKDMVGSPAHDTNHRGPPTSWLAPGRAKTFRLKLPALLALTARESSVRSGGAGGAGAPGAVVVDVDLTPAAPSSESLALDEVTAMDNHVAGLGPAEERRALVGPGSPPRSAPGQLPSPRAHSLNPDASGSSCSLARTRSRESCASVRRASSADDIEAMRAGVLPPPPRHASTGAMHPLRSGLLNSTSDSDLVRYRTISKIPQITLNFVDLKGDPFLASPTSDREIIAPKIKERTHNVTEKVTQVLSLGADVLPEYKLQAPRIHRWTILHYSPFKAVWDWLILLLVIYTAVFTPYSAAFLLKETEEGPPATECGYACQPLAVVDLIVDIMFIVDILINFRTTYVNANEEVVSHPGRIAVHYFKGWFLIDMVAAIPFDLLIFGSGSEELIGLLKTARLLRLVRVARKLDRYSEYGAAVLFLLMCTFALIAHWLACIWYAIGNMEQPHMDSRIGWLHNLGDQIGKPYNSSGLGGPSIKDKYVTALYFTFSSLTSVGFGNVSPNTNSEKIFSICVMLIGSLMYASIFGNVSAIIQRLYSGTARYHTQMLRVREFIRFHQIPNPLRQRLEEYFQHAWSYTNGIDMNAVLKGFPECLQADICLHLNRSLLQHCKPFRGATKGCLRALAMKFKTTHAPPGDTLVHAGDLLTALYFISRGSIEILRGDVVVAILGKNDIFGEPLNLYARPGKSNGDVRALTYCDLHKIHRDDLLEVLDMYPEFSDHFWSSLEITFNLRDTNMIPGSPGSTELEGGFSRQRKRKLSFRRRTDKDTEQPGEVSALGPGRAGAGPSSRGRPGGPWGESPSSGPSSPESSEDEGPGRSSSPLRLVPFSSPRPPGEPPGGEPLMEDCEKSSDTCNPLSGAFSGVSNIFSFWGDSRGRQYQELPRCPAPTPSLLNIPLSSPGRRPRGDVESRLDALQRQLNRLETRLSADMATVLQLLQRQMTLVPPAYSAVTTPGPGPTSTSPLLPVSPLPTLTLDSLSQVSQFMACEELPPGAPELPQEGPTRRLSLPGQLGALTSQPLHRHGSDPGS
- assay remarks: Inhibition of human ERG at 10 uM by fluorescence polarization assay relative to control
// values below are reported inhibition at 10 µM

Below are worked cases with known answers.
Param readout= inhibition at 10 µM; system= hERG (KCNH2) (Homo sapiens); entry= `Cc1cc(OCC(=O)O)cc(C)c1Cc1ccc(N)cc1` ; returns value.
< 25%

Entry `Cc1cc(OCC(=O)O)cc(C)c1Cc1ccc(N)c(C(C)C)c1` please
< 40%

Repeat with `Cc1cc(OCC(=O)O)cc(C)c1Cc1ccc(O)cc1`
< 25%

Thanks! And `NCCOc1ccc(Cc2ccc(N)cc2)c(C(F)(F)F)c1` ?
51%

New cases:
GET /values?readout=inhibition at 10 µM&system=hERG (KCNH2) (Homo sapiens)&item= `Nc1ccc(Cc2ccc(OCC(=O)O)cc2F)cc1`
> 91%

Entry `CCNc1ccc(Cc2c(C)cc(OCC(=O)O)cc2C)cc1C(C)C` please
51%

Try `CC(=O)Nc1ccc(Cc2c(C)cc(OCC(=O)O)cc2C)cc1C(C)C` next.
< 25%

Quick one: `CC(=O)Nc1ccc(Cc2ccc(OCC(=O)O)cc2)cc1C(C)C`
< 40%

Okay, and `Cc1cc(OCCN)cc(C)c1Cc1ccc(O)cc1` ?
51%

Lookup `CCNc1ccc(Cc2ccc(OCC(=O)O)cc2)cc1C(C)C`
> 91%

Also `CC(C)c1cc(Cc2ccc(OCC(=O)O)cc2)ccc1N` ?
< 40%

====

Entries and their inhibition at 10 µM
- experimental system: CYP2D6 (Homo sapiens)
- Sequence (P10635 whole entry): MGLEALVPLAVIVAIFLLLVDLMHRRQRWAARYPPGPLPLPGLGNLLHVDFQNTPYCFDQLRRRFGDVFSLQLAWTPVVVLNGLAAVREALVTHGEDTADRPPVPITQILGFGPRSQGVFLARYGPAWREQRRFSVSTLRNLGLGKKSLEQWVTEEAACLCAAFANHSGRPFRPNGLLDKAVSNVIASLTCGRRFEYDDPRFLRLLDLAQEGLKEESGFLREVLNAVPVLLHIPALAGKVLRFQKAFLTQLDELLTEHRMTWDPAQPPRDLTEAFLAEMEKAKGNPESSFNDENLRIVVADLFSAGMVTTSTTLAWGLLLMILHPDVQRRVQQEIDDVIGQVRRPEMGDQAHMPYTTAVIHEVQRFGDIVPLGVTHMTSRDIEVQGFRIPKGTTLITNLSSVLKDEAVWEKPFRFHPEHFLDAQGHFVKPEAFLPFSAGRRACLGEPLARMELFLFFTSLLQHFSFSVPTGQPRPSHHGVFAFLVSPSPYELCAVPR
- assay remarks: Inhibition of CYP2D6 (unknown origin) at 10 uM relative to control
- Format: ADME

Example results:
Look at this molecule and give its reported inhibition at 10 µM. `CC(=O)Nc1ccc(Cc2c(C)cc(OCC(=O)O)cc2C)cc1C(C)C`
< 50%

Request: `NCCOc1ccc(Cc2ccc(N)cc2)c(C(F)(F)F)c1`
51%

Subsequent entry: `CC(=O)Nc1ccc(Cc2ccc(OCC(=O)O)cc2)cc1C(C)C`
< 50%

Also `Cc1cc(OCC(=O)O)cc(C)c1Cc1ccc(O)cc1` , if possible.
< 50%

Check `CCNc1ccc(Cc2c(C)cc(OCC(=O)O)cc2C)cc1C(C)C` too.
51%

Same for `Cc1cc(OCCN)cc(C)c1Cc1ccc(O)cc1`
51%

Further cases:
Name the recorded inhibition at 10 µM for `Cc1cc(OCC(=O)O)cc(C)c1Cc1ccc(N)c(C(C)C)c1` .
< 50%

Another molecule: `Cc1cc(OCC(=O)O)cc(C)c1Cc1ccc(N)cc1`
< 50%

What would you report for `CCNc1ccc(Cc2ccc(OCC(=O)O)cc2)cc1C(C)C` ?
51%

One more molecule: `CC(C)c1cc(Cc2ccc(OCC(=O)O)cc2)ccc1N`
< 50%

Now the molecule `Nc1ccc(Cc2ccc(OCC(=O)O)cc2F)cc1`
< 50%

====

- experimental system: Thyroid hormone receptor beta (Homo sapiens, UniProt P10828)
- Sequence (P10828 whole entry): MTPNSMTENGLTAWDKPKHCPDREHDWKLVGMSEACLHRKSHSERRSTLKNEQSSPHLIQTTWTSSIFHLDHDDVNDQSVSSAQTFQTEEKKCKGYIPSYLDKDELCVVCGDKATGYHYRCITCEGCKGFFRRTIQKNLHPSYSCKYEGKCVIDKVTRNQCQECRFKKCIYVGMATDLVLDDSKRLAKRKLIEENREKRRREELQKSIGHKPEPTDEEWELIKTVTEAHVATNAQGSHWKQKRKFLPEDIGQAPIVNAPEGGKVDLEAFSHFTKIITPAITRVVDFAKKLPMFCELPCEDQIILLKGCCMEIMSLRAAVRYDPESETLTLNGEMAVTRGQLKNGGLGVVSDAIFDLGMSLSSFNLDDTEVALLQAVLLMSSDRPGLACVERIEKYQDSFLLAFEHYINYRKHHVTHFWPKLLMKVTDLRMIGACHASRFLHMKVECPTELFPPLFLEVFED
- assay remarks: Agonist activity at TRbeta (unknown origin) by Lanthascreen TR-FRET assay
metric: EC50 (nM)
Give the value, in units of nM, as a plain number.

Please state recorded EC50 (tested on Thyroid hormone receptor beta (Homo sapiens, UniProt P10828)) of `Cc1cc(OCC(=O)O)cc(C)c1Cc1ccc(O)cc1`
32
